system_name: Avi-KRAS G12D (1-169) GppNHp/RAF1 RBD-3xFLAG (52-151) (Homo sapiens, UniProt P01116, G12D)
Construct: 100 nM Avi-KRAS G12D (1-169) GppNHp
Sequence (P01116 1-169 isoform P01116-2 G12D): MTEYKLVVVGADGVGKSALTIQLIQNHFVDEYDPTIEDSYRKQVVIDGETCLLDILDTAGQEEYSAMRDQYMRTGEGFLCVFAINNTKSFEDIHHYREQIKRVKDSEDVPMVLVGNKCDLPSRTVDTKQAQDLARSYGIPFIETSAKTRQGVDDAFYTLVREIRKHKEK
test_protocol: RAS-effector PPI HTRF disruption assay, Raf1-GppNHp-KRAS G12D
pIC50: −log10 of the molar value.
measurement_name: pIC50

Sample answers from the record:
N#Cc1c(N)sc2c(F)ccc(-c3c(C(F)(F)F)cc4c(O[C@H]5CCC6(CNC6)C5)nc(OC[C@@]56CCCN5C[C@H](F)C6)nc4c3F)c12 (atropisomer, axis not shown) [Compound 79]    ≥ 7.00
Nc1nc2c(-c3cc4nc(OC[C@@]56CCCN5C[C@H](F)C6)nc(O[C@H]5CNC[C@H]5F)c4cc3C(F)(F)F)ccc(F)c2s1    5.00 to 6.00
N#Cc1c(N)sc2c(F)ccc(-c3c(Cl)cc4c(O[C@@H]5CN[C@H](CO)C5)nc(OC[C@@]56CCCN5C[C@H](F)C6)nc4c3F)c12    ≥ 7.00
N#Cc1c(N)sc2c(F)ccc(-c3c(Cl)cc4c(O[C@@H]5CN[C@@H](CO)C5)nc(OC[C@@]56CCCN5C[C@H](F)C6)nc4c3F)c12 (atropisomer, axis not shown) [Compound 69]    ≥ 7.00
CN1CCC[C@H]1COc1nc(OC2CNC2)c2cc(Cl)c(-c3ccc(F)c4sc(N)nc34)c(F)c2n1    < 5.00

Query block: May I ask what pIC50 has been recorded for Nc1nc2c(-c3c(C(F)(F)F)cc4c(OC5CC6CC[C@H]5N6)nc(OCC56CCCN5CCC6)nc4c3F)ccc(F)c2s1 (stereo partly drawn) ?
Result block: 6.00 to 7.00
